Molecular target: SfurOBP2 (Sogatella furcifera, UniProt V5T759)
Sequence (V5T759 entry or part of it): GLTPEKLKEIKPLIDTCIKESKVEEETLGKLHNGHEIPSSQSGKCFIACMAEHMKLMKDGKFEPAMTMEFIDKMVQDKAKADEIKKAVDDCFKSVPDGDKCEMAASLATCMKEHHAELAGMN
Assay: biochemical
Assay type: binding
Settings: ligand concentration 8 (unit not given), replicate column 2 of 3
The threshold is 20000. Values of Fluorescence competitive binding assay, OBP2 (raw fluorescence reading) beneath it are tagged met; values meeting or exceeding it are tagged not met.

1. CC(C)COC(=O)CCCCC(=O)OCC(C)C [DA(diisobutyl adipate)] ... met
2. C/C(=C\CO)CCC[C@H](C)CCC[C@H](C)CCCC(C)C ... not met
3. Cc1cc(C(C)(C)C)c(O)c(C(C)(C)C)c1 ... met
4. CCCCCCCCCCC ... met
5. O=C(c1ccccc1)c1ccccc1 ... met
6. CCCCCCC=CCO ... not met
7. CCCCCCCCCCOCCCCCCCCCC ... not met
8. CCCCCCCCCCCCO ... met
9. CC(=O)/C=C/C1=C(C)CCCC1(C)C ... met
10. CCCCCC=O ... met
11. CCCCCCCC=O ... met
12. C=CC(C)(O)CCC=C(C)CCC=C(C)C (mixture of isomers) ... met
13. Cc1ccc(C(C)C)cc1 ... met
14. CCCCCCCCC=O ... not met
15. CCCCCCCC ... met
16. CCCCCC(C)=O ... met
17. CC/C=C\CCO [(Z)-3-hexenol] ... met
18. C[C@@H]1CC[C@H]2C(C)(C)[C@H]3C[C@@]12CC[C@@]3(C)O ... not met
19. CC1=CC[C@@H](C(C)(C)O)CC1 ... met
20. CC(=O)c1ccccc1 ... met
21. COC(=O)c1ccccc1 ... met
22. c1ccc2ccccc2c1 ... not met
23. C=C/C(C)=C/C/C=C(\C)CCC=C(C)C ... met
